Listed below: tissue uptake at 1 h values for each entry.
Assay: Drug uptake in tumor cells in Fischer rat transplanted with rat 9L cells after 60 mins
Assay type: ADME, Neoplasm
Conditions: read-out: Drug uptake

Illustrative cases are given below, each with its answer.
> print(dat)
                          compound    observed
1  N[C@]1(C(=O)O)C[C@@H](C[18F])C1   2.5 %ID/g
2   N[C@]1(C(=O)O)C[C@H](C[18F])C1  1.59 %ID/g

Could you now look at the following compound, please?
Enquiry: Identify the reported tissue uptake at 1 h for the following entry. N[C@]1(C(=O)O)C[C@@H]([18F])C1 [FLUCICLOVINE F18]
Return: 1.72 %ID/g
